- measurementProtocol: Toxicity liver stage against HepG2, at 10uM
- Format: cell-based
- Design: test concentration 10 uM, cell line HepG2-A16-CD81EGFP
- testParameters: human, HepG2-A16-CD81EGFP cells; read-out: INHIBITION
readoutLabel: cytotoxicity at 10 µM (%)

compound | valueUnits | observed
Fc1cccc(CN2CCC[C@@H](Cn3nnc(-c4ccccn4)n3)C2)c1 | % | 3.33
CCc1nc(CN2CCCC(N(C)Cc3cnc(C)cn3)C2)no1 (centres undefined) | % | -5.66
O=C1CCC2(CCCN(C(=O)c3ccco3)CC2)N1 (centres undefined) | % | 3.17
CC(NC(=O)NCCCc1n[nH]c(N)c1C#N)c1cccs1 (centres undefined) | % | -6.8
Cc1ncsc1CNC(=O)N1CCN(Cc2ccccc2)CC1C (centres undefined) | % | -131
COC1CN(CCO)S(=O)(=O)c2ccccc21 (centres undefined) | % | 3.54
Cn1ccc2c(C(=O)N3CCC(C(N)=O)CC3)cccc21 | % | 2.92
Cc1cnn(C2CCCN(C(=O)c3cc[nH]n3)C2)c1 (centres undefined) | % | -18.3
CCc1nc(C2CCCN(C(=O)c3cccc(C(N)=O)c3)C2)no1 (centres undefined) | % | -22.2
Cc1ccsc1CNC(=O)NC1CCCc2c1cnn2CCO (centres undefined) | % | 3.33
Cc1nnc(N2C[C@@H]3CCCO[C@@H]3[C@H](N(C)C)C2)s1 | % | 17.5
COCCN(C)C(=O)Nc1ccc2c(ccn2CC(=O)N(C)C)c1 | % | 6.71
CO[C@H]1CN(C(C)C)C[C@@H]1NC(=O)c1cc(-c2ccccc2O)n[nH]1 | % | -0.247
CS(=O)(=O)NC1CCN(C(=O)NCc2ccccn2)CC1 | % | -5.04
Cc1cc(N2CCCC(OC(=O)CCc3cnn(C)c3)C2)nc(C)n1 (centres undefined) | % | 0.127
Cc1cc(N2CCCC2)nc(N(C)CCO)c1C#N | % | 0.252
CNC(=O)CN1C(=O)CCC12CCCN(Cc1cccc(F)c1)C2 (centres undefined) | % | -5.51
Cc1cccc(N2CCOCC3(C2)CN(c2cncnc2)C(=O)CO3)n1 (centres undefined) | % | 5.88
CC(C)NC(=O)c1ccc2nnc(C3CCN(S(C)(=O)=O)C3)n2c1 (centres undefined) | % | 3.5
COCCCNC(=O)CN(C)C(=O)c1cc(C)sc1C | % | -2.58
Cc1cnccc1-c1cnn(CCNC(=O)C(C)(C)C)c1C1CC1 | % | -0.459
CC(C)c1cc(C(=O)NCCn2nc3ccccn3c2=O)n[nH]1 | % | -8.5
CCOCCCNC(=O)C(NC(=O)Cc1cccs1)c1ccc(C)cc1 (centres undefined) | % | 13.2
CCCc1cc(=O)n(CC(=O)NC(C)C)c(-n2nc(C)cc2C)n1 | % | 2.74
